target or system: E3 ubiquitin-protein ligase Mdm2 (Homo sapiens, UniProt Q00987)
Sequence (Q00987 whole entry): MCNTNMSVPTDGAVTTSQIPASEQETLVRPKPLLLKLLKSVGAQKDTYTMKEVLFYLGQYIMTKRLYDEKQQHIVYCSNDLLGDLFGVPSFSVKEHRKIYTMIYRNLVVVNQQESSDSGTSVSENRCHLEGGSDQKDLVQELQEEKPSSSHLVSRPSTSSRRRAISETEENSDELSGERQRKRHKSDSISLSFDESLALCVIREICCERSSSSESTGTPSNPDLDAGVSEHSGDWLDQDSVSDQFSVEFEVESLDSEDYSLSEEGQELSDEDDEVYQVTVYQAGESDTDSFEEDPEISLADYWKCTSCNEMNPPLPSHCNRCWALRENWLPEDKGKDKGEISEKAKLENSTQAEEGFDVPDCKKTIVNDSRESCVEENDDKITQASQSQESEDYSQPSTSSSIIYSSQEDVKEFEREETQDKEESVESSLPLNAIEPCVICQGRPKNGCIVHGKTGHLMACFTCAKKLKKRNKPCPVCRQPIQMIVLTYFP
assay overview: Inhibition of p53-HDM2 interaction
endpoint name: pIC50
Numbers only, as −log10 of the molar value.

Q) State recorded pIC50 with E3 ubiquitin-protein ligase Mdm2 (Homo sapiens, UniProt Q00987), entry C=C(C(=O)O)C(CCCCCC)C(=O)O (stereo unspecified) , no comment.
A) 3.63

Value source: ChEMBL document CHEMBL1148535
